Target: RUNX1 (UniProt Q01196)
Sequence (Q01196 whole entry): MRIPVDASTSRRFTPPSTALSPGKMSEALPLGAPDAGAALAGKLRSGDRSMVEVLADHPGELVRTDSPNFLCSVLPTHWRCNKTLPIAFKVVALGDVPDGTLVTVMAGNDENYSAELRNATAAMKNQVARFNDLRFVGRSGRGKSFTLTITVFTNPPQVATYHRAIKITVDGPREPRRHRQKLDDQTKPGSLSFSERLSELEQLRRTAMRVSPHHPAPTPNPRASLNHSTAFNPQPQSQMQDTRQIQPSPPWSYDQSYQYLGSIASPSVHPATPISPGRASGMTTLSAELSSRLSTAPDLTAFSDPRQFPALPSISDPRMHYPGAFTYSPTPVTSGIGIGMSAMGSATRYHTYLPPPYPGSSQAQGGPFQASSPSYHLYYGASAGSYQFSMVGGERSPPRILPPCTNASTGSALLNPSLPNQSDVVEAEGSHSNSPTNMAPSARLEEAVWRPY
Test: RUNX1 binding intensity (PBM fluorescence), RUNX1 alone (arbitrary fluorescence units); higher = stronger binding;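 further: Full-length recombinant human RUNX1 bound to double-stranded 36-bp genomic probes on a high-density microarray, scored as Alexa488 fluorescence per spot via anti-RUNX1 antibody, median of four replicate spots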
Conditions: RUNX1 concentration 2 nM; ETS1 concentration 0 nM
Lab note: anything with RUNX1 binding intensity at or over 900 counts as yes; the rest go in no.

SEQUENCE_RECORD | QUALITATIVE_LABEL
AGTTGGTTCCTTCCGGTGGGTTTGTGGGCTTGGGGT | no
ACAGTCGCACCGGAAGCTGCCCGCGGTGTTGACACA | no
CACCCGAACGGAAACACCTGCGGCTGAGGGGAGGGG | yes
CCGCTGACATCCGCTTGGCCTGCGGCTTCTTTCTGT | yes
ACACAAACAGGAAGTGTTTGTGGTCCCTGCCTTTAG | no
GGCAAACAGGAAACACTCCCAGGGCTGTGGGCTCCT | no

Problem: Dear colleague, could you confirm whether CCCATCCATCCGCCTCCAAAGTAACCTCAAGAATTT has RUNX1 binding intensity at or above 900?
Result: yes

Problem: Dear colleague, could you confirm whether CCGCCGACACACTTCCGGCGGCCACCACAGGGTATT has RUNX1 binding intensity at or above 900?
Result: no

Problem: Dear colleague, could you confirm whether TTACTTCCTGAGGGTGCACAGGCTGTGGTCGTCTAT has RUNX1 binding intensity at or above 900?
Result: no

Problem: Dear colleague, could you confirm whether GGACTCTGGCAGGAAGCTGTTTGTGGTTGTCACACC has RUNX1 binding intensity at or above 900?
Result: no

Problem: Dear colleague, could you confirm whether CTCGTGGGTGCCGGAAGTGGAGGCGGTTGGTGGGGT has RUNX1 binding intensity at or above 900?
Result: no

Problem: Dear colleague, could you confirm whether GAAGAGAAAGGAAACGGCTCGCGGTTTCTGGGGTTC has RUNX1 binding intensity at or above 900?
Result: no

Problem: Dear colleague, could you confirm whether GACAGTTTTCCGGCCTAGTTTGCGGCTGCTCCTGCC has RUNX1 binding intensity at or above 900?
Result: no

Problem: Dear colleague, could you confirm whether TATTGTGTACTTCCCCTTCATGTTGTGGTTGGCTTT has RUNX1 binding intensity at or above 900?
Result: yes

Problem: Dear colleague, could you confirm whether TGTATAACATCCTCATGTTCTGTGGGTGAGTTGAGC has RUNX1 binding intensity at or above 900?
Result: no

Problem: Dear colleague, could you confirm whether GGCGACCAGCTCCGGAAAGCGCGGTGGGGACGCGCT has RUNX1 binding intensity at or above 900?
Result: no

Problem: Dear colleague, could you confirm whether CCCTGCCATTTCCTGCCCAATACCGCGTATGCAACT has RUNX1 binding intensity at or above 900?
Result: yes

Problem: Dear colleague, could you confirm whether TGGAAGGCCGGAAAAGGTTTACCACCACACTCCGGT has RUNX1 binding intensity at or above 900?
Result: no

Problem: Dear colleague, could you confirm whether GGCCAGGCAGGAAGTCCCGCGCCACAAGCGGCCGTC has RUNX1 binding intensity at or above 900?
Result: no

Problem: Dear colleague, could you confirm whether CGAGTAGAGATAGCAGGAAGTGGTTTATTCTGAGGT has RUNX1 binding intensity at or above 900?
Result: no

Problem: Dear colleague, could you confirm whether GACCTGGGTTTCCTGTCTGTACATCGCGGTTCCTAC has RUNX1 binding intensity at or above 900?
Result: no

Problem: Dear colleague, could you confirm whether TGGGGACCACTGTCAGGATGTGGTCACTGGAGTCAC has RUNX1 binding intensity at or above 900?
Result: no

Problem: Dear colleague, could you confirm whether TATTTCCTGTGCACAGAAGCAGCTGGGCCGCAGAGT has RUNX1 binding intensity at or above 900?
Result: no

Problem: Dear colleague, could you confirm whether GGTTCGCGGCTTCCGGGACATTTGTACCGCAGGGGG has RUNX1 binding intensity at or above 900?
Result: no

Problem: Dear colleague, could you confirm whether GCCTGAAGGACTTCCGGGAACCGCAAAGCACGGTGT has RUNX1 binding intensity at or above 900?
Result: yes

Problem: Dear colleague, could you confirm whether CACTTCCTCTGTGACTGCAGGTTTCCAACCACAAGC has RUNX1 binding intensity at or above 900?
Result: yes

Problem: Dear colleague, could you confirm whether ATACCGGCGCATCCGGATTTTGAAGCCGCAGTGGAC has RUNX1 binding intensity at or above 900?
Result: no

Problem: Dear colleague, could you confirm whether AAGAGGAAGTCCCAAATTGCTTTTTAACCACCAACA has RUNX1 binding intensity at or above 900?
Result: no

Problem: Dear colleague, could you confirm whether GCGCGGGCAACTTCCGGTGTGGGTGACGAGTGGTGG has RUNX1 binding intensity at or above 900?
Result: no

Problem: Dear colleague, could you confirm whether GCTTCTGAGGAAGTGCGTTTTGTGGGTAGGTGGAGT has RUNX1 binding intensity at or above 900?
Result: no
